# Target desc: LPA1 (Homo sapiens)
# Test method notes: LPA1 Migration Assay (Oris)
# Condition context: read-out: Cell Migration EC50
pEC50: −log10 of the molar value.
The following compounds are listed with their measured pEC50 values.
Measured attribute: pEC50

INSERT INTO measurements (smiles_str, target_desc, result) VALUES
  ('C[C@@H](OC(=O)Nc1c(-c2ccc(-c3cc(F)c(Oc4ncccc4C(=O)O)c(F)c3)cc2)cnn1C)c1ccccc1', 'LPA1 (Homo sapiens)', '> 7.30'),
  ('C[C@@H](OC(=O)Nc1c(C#Cc2cc3sc(C4(c5nn[nH]n5)CC4)cc3s2)cnn1C)c1ccccc1', 'LPA1 (Homo sapiens)', '6.30 to 7.30'),
  ('C[C@@H](OC(=O)Nc1ocnc1C#Cc1cc2sc(C3(C(=O)O)CC3)cc2s1)c1ccccc1', 'LPA1 (Homo sapiens)', '6.30 to 7.30'),
  ('C[C@@H](OC(=O)Nc1c(-c2cc(F)c(-c3ccc(C4(C(=O)O)CC4)cc3)cc2F)nn2ncccc12)c1ccccc1', 'LPA1 (Homo sapiens)', '6.30 to 7.30'),
  ('Cc1noc(-c2ccc(-c3ccc(Oc4ncccc4C(=O)O)cc3)cc2)c1NC(=O)O[C@H](C)c1ccccc1', 'LPA1 (Homo sapiens)', '> 7.30'),
  ('C[C@@H](OC(=O)Nc1c(-c2ccc(-c3cc(F)c(Oc4cccnc4C(=O)O)c(F)c3)cc2)cnn1C)c1ccccc1', 'LPA1 (Homo sapiens)', '6.30 to 7.30'),
  ('Cc1noc(-c2ccc(-c3ccc(Oc4c(C(=O)O)nn(C)c4C)cc3)cc2)c1NC(=O)O[C@H](C)c1ccccc1', 'LPA1 (Homo sapiens)', '6.30 to 7.30');

---

# Target desc: LPA1 (Homo sapiens, UniProt Q92633)
# Sequence (Q92633 whole entry): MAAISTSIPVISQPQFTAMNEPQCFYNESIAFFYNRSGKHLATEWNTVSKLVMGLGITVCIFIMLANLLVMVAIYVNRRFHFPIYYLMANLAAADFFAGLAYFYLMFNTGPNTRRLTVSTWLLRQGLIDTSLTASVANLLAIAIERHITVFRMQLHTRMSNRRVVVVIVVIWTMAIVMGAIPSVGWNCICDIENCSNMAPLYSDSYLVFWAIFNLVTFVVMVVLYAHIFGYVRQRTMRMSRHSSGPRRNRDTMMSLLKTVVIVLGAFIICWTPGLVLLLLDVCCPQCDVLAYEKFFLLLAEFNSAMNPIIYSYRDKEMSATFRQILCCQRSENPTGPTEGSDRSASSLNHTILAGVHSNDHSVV
# Test method notes: LPA1 Migration Assay (Oris)
# Assay type: cell-based
# Design: host or cells: primary fibroblasts (lung, dermal), HFL-1, 3T3 and CHO cells expressing LPA1R
# Condition context: read-out: Cell Migration EC50
# EC50 annotations
Measured attribute: EC50

INSERT INTO measurements (compound, target_desc, result) VALUES
  ('Cc1noc(-c2ccc(-c3ccc(OC(F)(F)C(=O)O)cc3)cc2)c1NC(=O)O[C@H](C)c1ccccc1 [IT228]', 'LPA1 (Homo sapiens, UniProt Q92633)', '50 to 500 nM'),
  ('Cc1nnn(-c2ccc(-c3cc(F)c(Oc4cccnc4C(=O)O)c(F)c3)cc2)c1NC(=O)O[C@H](C)c1ccccc1 [IT437]', 'LPA1 (Homo sapiens, UniProt Q92633)', '50 to 500 nM'),
  ('C[C@@H](OC(=O)Nc1c(-c2cc3sc(-c4ccc(C5(C(=O)O)CC5)c(F)c4)cc3s2)nnn1C)c1ccccc1 [IT296]', 'LPA1 (Homo sapiens, UniProt Q92633)', '50 to 500 nM'),
  ('Cc1nsc(-c2cc3sc(-c4cc(F)c(CC(=O)O)c(F)c4)cc3s2)c1NC(=O)O[C@H](C)c1ccccc1 [IT156]', 'LPA1 (Homo sapiens, UniProt Q92633)', '> 500 nM');

---

# Target desc: LPA1 (Homo sapiens)
# Test method notes: Ca Flux LPA1 assay
pIC50: −log10 of the molar value.
Measured attribute: pIC50

INSERT INTO results (smiles_str, measured_attribute, result) VALUES
  ('Cc1nnn(-c2cc(F)c(-c3ccc(C4(C(=O)O)CCOCC4)cc3)cc2F)c1NC(=O)O[C@H](C)c1ccccc1', 'pIC50', '< 6.30'),
  ('C[C@@H](OC(=O)Nc1c(-c2cc3sc(C#CC4(C(=O)O)CC4)cc3s2)cnn1C)c1ccccc1', 'pIC50', '> 7.30'),
  ('C[C@@H](OC(=O)Nc1c(-c2ccc(-c3cc(F)c(Oc4cccnc4C(=O)O)c(F)c3)cc2)nnn1C)c1ccccc1', 'pIC50', '> 7.30'),
  ('C[C@@H](OC(=O)Nc1c(-c2ccc(-c3cc(F)c(Oc4ccncc4C(=O)O)c(F)c3)cc2)nnn1C)c1ccccc1', 'pIC50', '6.30 to 7.30'),
  ('C[C@@H](OC(=O)Nc1ocnc1C#Cc1cc2sc(C3(C(=O)O)CC3)cc2s1)c1ccccc1', 'pIC50', '> 7.30'),
  ('Cc1noc(-c2cc(F)c(-c3cc(F)c(Oc4ncccc4C(=O)O)c(F)c3)cc2F)c1NC(=O)O[C@H](C)c1ccccc1', 'pIC50', '> 7.30'),
  ('C[C@@H](OC(=O)Nc1c(-c2ccc(-c3ccc(Oc4ccccc4C(=O)O)c(F)c3)cc2)cnn1C)c1ccccc1', 'pIC50', '> 7.30'),
  ('Cc1noc(-c2cc3sc(C#CC4(C(=O)O)CC4)cc3s2)c1NC(=O)O[C@H](C)c1ccccc1', 'pIC50', '> 7.30'),
  ('Cc1noc(-c2ccc(-c3cc(F)c(Oc4ncccc4C(=O)O)c(F)c3)cc2)c1NC(=O)O[C@H](C)c1ccccc1', 'pIC50', '> 7.30'),
  ('Cc1noc(-c2ccc(-c3ccc(Oc4c(C)nn(C)c4C(=O)O)cc3)cc2)c1NC(=O)O[C@H](C)c1ccccc1', 'pIC50', '6.30 to 7.30'),
  ('C[C@@H](OC(=O)Nc1c(-c2ccc(-c3cc(F)c(Oc4ncccc4C(=O)O)c(F)c3)cc2)cnn1C)c1ccccc1Cl', 'pIC50', '6.30 to 7.30'),
  ('C[C@@H](OC(=O)Nc1c(-c2ccc(-c3ccc(Oc4ccccc4C(=O)O)c(F)c3)cc2)nnn1C)c1ccccc1', 'pIC50', '> 7.30'),
  ('C[C@@H](OC(=O)Nc1c(-c2cc3sc(-c4ccc(C5(C(=O)O)CC5)cc4F)cc3s2)cnn1C)c1ccccc1', 'pIC50', '6.30 to 7.30'),
  ('Cc1noc(-c2ccc(-c3ccc(OC(C)(C)C(=O)O)cc3)cc2)c1NC(=O)O[C@H](C)c1ccccc1', 'pIC50', '> 7.30'),
  ('Cc1noc(-c2ccc(-c3ccc(Oc4c(C(=O)O)nn(C)c4C)cc3)cc2)c1NC(=O)O[C@H](C)c1ccccc1', 'pIC50', '> 7.30');
